molecular target: PI3K beta (Homo sapiens); construct: purchased Millipore, Billerica, MA, USA; assay: Luciferase-based luminescence assay (ADP Glo), PI3K beta enzymatic activity; format: biochemical; conditions: ratio of enzymatic IC50 values, Table 1
attributeMeasured: α/β ratio

Examples with their reported α/β ratio follow.
# structureString, α/β ratio
records = [
    ("CC(C)(Cc1cccc(F)c1)Nc1nc(N2CCOCC2)nc(-n2c(C(F)F)nc3ccccc32)n1", "A’"),
    ("COc1cc(-c2ccccc2CC(C)(C)Nc2nc(N3CCOCC3)nc(-n3c(C(F)F)nc4ccccc43)n2)ccn1", "D’"),
    ("CC(C)(CNc1nc(N2CCOCC2)nc(-n2c(C(F)F)nc3ccccc32)n1)c1ccccc1", "D’"),
    ("CC(C)(Cc1ccccc1C1CCN(S(C)(=O)=O)CC1)Nc1nc(N2CCOCC2)nc(-n2c(C(F)F)nc3ccccc32)n1", "A’"),
    ("CC(C)(Cc1ccccc1-c1cccnc1F)Nc1nc(N2CCOCC2)nc(-n2c(C(F)F)nc3ccccc32)n1", "D’"),
]

input: I have this compound here, COc1ccc(CC(C)(C)Nc2nc(N3CCOCC3)nc(-n3c(C(F)F)nc4ccccc43)n2)cc1 , and I need its recorded α/β ratio.
output: D’

input: Follow-up entry: CC(C)(Cc1ccccc1F)Nc1nc(N2CCOCC2)nc(-n2c(C(F)F)nc3ccccc32)n1
output: D’

input: Follow-up entry: CCN1CCC(c2ccccc2CC(C)(C)Nc2nc(N3CCOCC3)nc(-n3c(C(F)F)nc4ccccc43)n2)CC1
output: C’

input: Follow-up entry: Cc1ccccc1CC(C)(C)Nc1nc(N2CCOCC2)nc(-n2c(C(F)F)nc3ccccc32)n1
output: A’

input: Follow-up entry: CC(C)(Cc1ccc(Cl)cc1)Nc1nc(N2CCOCC2)nc(-n2c(C(F)F)nc3ccccc32)n1
output: D’

input: Follow-up entry: CC(C)(Cc1c(F)cccc1F)Nc1nc(N2CCOCC2)nc(-n2c(C(F)F)nc3ccccc32)n1
output: D’

input: Follow-up entry: CC(C)N1CCC(c2ccccc2CC(C)(C)Nc2nc(N3CCOCC3)nc(-n3c(C(F)F)nc4ccccc43)n2)CC1
output: D’

---

molecular target: PI3K delta (Homo sapiens); construct: purchased Millipore, Billerica, MA, USA; test: Luciferase-based luminescence assay (KinaseGlo), PI3K delta enzymatic activity; format: biochemical; details: ratio of enzymatic IC50 values, Table 1
attributeMeasured: γ/δ ratio

# molecule, testedSystem, γ/δ ratio
records = [
    ("CC(C)(Cc1ccccc1-c1cncnc1)Nc1nc(N2CCOCC2)nc(-n2c(C(F)F)nc3ccccc32)n1 [Compound A63]", "PI3K delta (Homo sapiens)", "A’"),
    ("Cn1nccc1-c1ccccc1CC(C)(C)Nc1nc(N2CCOCC2)nc(-n2c(C(F)F)nc3ccccc32)n1 [Compound A46]", "PI3K delta (Homo sapiens)", "A’"),
    ("CC(C)(Cc1ccccc1)Nc1nc(N2CCOCC2)nc(-n2c(C(F)F)nc3ccccc32)n1 [Compound A14]", "PI3K delta (Homo sapiens)", "A’"),
    ("CN1CCC(c2ccccc2CC(C)(C)Nc2nc(N3CCOCC3)nc(-n3c(C(F)F)nc4ccccc43)n2)CC1 [Compound A35]", "PI3K delta (Homo sapiens)", "A’"),
    ("Cn1cc(-c2ccccc2CC(C)(C)Nc2nc(N3CCOCC3)nc(-n3c(C(F)F)nc4ccccc43)n2)cn1 [Compound A45]", "PI3K delta (Homo sapiens)", "A’"),
]

input: I have this molecule here, COc1cc(CC(C)(C)Nc2nc(N3CCOCC3)nc(-n3c(C(F)F)nc4ccccc43)n2)ccc1F [Compound A50] , and I need its recorded γ/δ ratio.
output: A’

---

Target: PI3K beta (Homo sapiens, UniProt P42338)
Construct: purchased Millipore, Billerica, MA, USA
Sequence (P42338 whole entry, species assumed): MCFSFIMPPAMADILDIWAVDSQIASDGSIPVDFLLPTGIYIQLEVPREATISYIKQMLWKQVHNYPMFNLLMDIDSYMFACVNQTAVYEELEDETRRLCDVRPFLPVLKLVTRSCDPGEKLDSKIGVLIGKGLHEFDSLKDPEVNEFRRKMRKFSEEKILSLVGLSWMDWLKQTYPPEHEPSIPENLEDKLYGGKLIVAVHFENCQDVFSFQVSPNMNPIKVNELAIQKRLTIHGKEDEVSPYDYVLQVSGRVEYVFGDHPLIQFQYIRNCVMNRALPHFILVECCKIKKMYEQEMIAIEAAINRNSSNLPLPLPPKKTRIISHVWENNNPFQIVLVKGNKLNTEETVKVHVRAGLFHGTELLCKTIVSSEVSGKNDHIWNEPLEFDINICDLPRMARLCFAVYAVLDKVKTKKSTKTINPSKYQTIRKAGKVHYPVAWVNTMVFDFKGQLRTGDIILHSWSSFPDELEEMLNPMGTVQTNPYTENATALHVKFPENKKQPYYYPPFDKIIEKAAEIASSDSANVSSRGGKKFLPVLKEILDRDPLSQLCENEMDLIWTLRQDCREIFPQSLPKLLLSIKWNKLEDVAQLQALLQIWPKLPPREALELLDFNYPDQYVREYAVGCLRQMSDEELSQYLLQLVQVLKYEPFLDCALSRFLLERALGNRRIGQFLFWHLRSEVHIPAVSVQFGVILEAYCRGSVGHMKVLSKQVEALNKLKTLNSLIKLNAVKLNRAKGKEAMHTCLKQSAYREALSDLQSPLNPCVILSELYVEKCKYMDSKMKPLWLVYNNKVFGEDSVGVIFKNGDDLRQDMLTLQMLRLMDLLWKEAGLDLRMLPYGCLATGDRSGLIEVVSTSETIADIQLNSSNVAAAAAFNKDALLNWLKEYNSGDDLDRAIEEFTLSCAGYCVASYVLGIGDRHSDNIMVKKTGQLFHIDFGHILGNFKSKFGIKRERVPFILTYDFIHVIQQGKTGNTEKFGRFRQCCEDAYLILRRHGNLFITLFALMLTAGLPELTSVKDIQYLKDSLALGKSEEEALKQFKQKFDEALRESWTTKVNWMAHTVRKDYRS
Sequence (P27986 whole entry partner, species assumed): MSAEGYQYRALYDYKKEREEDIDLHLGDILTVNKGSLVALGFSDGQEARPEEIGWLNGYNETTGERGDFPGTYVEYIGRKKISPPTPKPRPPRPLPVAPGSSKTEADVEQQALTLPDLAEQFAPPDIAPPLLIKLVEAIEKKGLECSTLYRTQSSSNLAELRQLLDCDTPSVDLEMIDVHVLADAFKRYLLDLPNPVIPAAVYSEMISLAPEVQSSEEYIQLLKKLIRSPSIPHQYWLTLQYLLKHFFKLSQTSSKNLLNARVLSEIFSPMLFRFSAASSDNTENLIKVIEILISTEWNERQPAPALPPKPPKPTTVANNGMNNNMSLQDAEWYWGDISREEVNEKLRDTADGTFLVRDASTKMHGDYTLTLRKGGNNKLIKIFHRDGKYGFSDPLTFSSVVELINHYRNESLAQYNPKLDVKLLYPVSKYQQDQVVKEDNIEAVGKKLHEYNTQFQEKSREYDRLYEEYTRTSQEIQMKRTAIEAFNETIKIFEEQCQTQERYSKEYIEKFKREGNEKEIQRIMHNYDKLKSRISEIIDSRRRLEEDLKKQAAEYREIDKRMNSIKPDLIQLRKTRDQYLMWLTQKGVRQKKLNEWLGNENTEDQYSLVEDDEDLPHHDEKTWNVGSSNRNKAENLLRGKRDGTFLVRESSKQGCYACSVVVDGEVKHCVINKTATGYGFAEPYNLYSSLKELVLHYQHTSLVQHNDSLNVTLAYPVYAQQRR
Experiment: Luciferase-based luminescence assay (ADP Glo), PI3K beta enzymatic activity
Format: biochemical
Conditions: inhibition of enzymatic activity, ADP Glo, 25 μM ATP; read-out: IC50 p110β
Experimental: PI3K catalyzes the conversion of phosphatidylinositol-4,5-bisphosphate (PIP2) and ATP to phosphatidylinositol-3,4,5-trisphosphate (PIP3) and ADP. […] PI3K beta and gamma enzymatic activity was determined by measuring the amount of ADP produced following the kinase reaction using a luciferase-based luminescence assay (ADP Glo®, Promega Corp., Madison, WI, USA). […] IC50 values were determined by curve fitting using Graphpad Prism software (Graphpad Software, La Jolla, CA, USA).
Reported values of IC50 for individual entries

input: Identify the measured IC50 of COc1ccccc1CC(C)(C)Nc1nc(N2CCOCC2)nc(-n2c(C(F)F)nc3ccccc32)n1 [Compound A19] for PI3K beta (Homo sapiens, UniProt P42338).
output: 200 to 500 nM

---

biological target: PI3Kβ (Homo sapiens); construct: endogenous in cells; test: ELISA assay for PI3Kβ: in-cell ELISA, phosphorylation of AKT (Ser473) in PC-3 cells; details: cellular, pAKT (Ser473), PC-3 cells, LPA stimulation; read-out: IC50 p110β
Sequence (P42338 whole entry): as the sequence (P42338 whole entry, species assumed) above
Sequence (P27986 whole entry partner): as the sequence (P27986 whole entry partner, species assumed) above
pIC50: −log10 of the molar value.
attributeMeasured: pIC50

Examples with their reported pIC50 follow.
# structureString, pIC50
data = [
    ("COc1ccccc1CC(C)(C)Nc1nc(N2CCOCC2)nc(-n2c(C(F)F)nc3ccccc32)n1", "≥ 7.00"),
    ("CC(=O)N1CCC(c2ccccc2CC(C)(C)Nc2nc(N3CCOCC3)nc(-n3c(C(F)F)nc4ccccc43)n2)CC1", "≥ 7.00"),
    ("CC(C)(Cc1ccccc1-c1ccccc1Cl)Nc1nc(N2CCOCC2)nc(-n2c(C(F)F)nc3ccccc32)n1", "6.70 to 7.00"),
]

input: I have this compound here, COc1cccc(-c2ccccc2CC(C)(C)Nc2nc(N3CCOCC3)nc(-n3c(C(F)F)nc4ccccc43)n2)c1 , and I need its recorded pIC50.
output: 6.70 to 7.00

---

target: PI3Kδ (Homo sapiens, UniProt O00329); construct: endogenous in cells; host or cells: Raji (ATCC #CCL-86); experiment: ELISA assay for PI3Kδ: sandwich ELISA, phosphorylation of AKT (Thr308) in Raji cells; assay type: cell-based; conditions: ratio of cellular IC50 values, Table 2
Sequence (O00329 whole entry): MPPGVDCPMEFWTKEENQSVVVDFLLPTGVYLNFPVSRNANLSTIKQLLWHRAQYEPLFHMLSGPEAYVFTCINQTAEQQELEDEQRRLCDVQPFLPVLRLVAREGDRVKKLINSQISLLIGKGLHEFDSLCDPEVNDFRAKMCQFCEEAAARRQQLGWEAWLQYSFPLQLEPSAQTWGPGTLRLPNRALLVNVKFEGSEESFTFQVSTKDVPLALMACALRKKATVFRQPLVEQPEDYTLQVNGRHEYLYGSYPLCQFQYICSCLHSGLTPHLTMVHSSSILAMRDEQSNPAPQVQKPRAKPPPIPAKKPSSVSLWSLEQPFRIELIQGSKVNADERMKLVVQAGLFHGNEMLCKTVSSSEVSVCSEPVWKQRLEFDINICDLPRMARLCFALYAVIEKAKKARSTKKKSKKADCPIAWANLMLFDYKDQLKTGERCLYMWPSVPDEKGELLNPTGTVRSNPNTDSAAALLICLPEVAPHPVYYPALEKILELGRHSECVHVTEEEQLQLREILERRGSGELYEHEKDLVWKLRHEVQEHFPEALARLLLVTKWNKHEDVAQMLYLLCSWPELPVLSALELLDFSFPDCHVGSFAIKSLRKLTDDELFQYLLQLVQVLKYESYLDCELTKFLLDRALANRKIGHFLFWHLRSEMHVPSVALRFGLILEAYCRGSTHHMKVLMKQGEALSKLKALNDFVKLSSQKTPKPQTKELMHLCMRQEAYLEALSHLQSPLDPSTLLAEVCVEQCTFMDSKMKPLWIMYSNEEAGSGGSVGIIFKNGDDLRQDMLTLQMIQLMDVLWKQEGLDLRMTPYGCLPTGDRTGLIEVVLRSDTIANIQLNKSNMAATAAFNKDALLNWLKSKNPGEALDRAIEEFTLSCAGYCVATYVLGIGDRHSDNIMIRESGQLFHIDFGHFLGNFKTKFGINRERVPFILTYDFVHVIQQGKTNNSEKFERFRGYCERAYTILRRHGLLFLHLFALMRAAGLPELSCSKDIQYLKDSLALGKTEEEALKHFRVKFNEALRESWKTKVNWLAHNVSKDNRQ
Sequence (P27986 whole entry partner): as the sequence (P27986 whole entry partner, species assumed) above
attributeMeasured: β/δ ratio

Examples with their reported β/δ ratio follow.
# compound, testedSystem, attributeMeasured, result
data = [
    ("CC(C)(Cc1ccccc1Cl)Nc1nc(N2CCOCC2)nc(-n2c(C(F)F)nc3ccccc32)n1", "PI3Kδ (Homo sapiens, UniProt O00329)", "β/δ ratio", "A’"),
    ("CC(C)(Cc1ccccc1-c1cncnc1)Nc1nc(N2CCOCC2)nc(-n2c(C(F)F)nc3ccccc32)n1", "PI3Kδ (Homo sapiens, UniProt O00329)", "β/δ ratio", "A’"),
    ("COc1cccc(CC(C)(C)Nc2nc(N3CCOCC3)nc(-n3c(C(F)F)nc4ccccc43)n2)c1", "PI3Kδ (Homo sapiens, UniProt O00329)", "β/δ ratio", "A’"),
    ("CC(C)(Cc1ccccc1C1CCNCC1)Nc1nc(N2CCOCC2)nc(-n2c(C(F)F)nc3ccccc32)n1", "PI3Kδ (Homo sapiens, UniProt O00329)", "β/δ ratio", "A’"),
    ("CC(C)(Cc1ccccc1-c1cccnc1F)Nc1nc(N2CCOCC2)nc(-n2c(C(F)F)nc3ccccc32)n1", "PI3Kδ (Homo sapiens, UniProt O00329)", "β/δ ratio", "A’"),
    ("CN1CCC(c2ccccc2CC(C)(C)Nc2nc(N3CCOCC3)nc(-n3c(C(F)F)nc4ccccc43)n2)CC1", "PI3Kδ (Homo sapiens, UniProt O00329)", "β/δ ratio", "A’"),
]

input: I have this compound here, CC(C)(Cc1ccccc1C1CCNC1)Nc1nc(N2CCOCC2)nc(-n2c(C(F)F)nc3ccccc32)n1 (stereo not drawn) , and I need its recorded β/δ ratio.
output: C’

input: Follow-up entry: COc1ccccc1CC(C)(C)Nc1nc(N2CCOCC2)nc(-n2c(C(F)F)nc3ccccc32)n1
output: D’

input: Follow-up entry: CC(C)(Cc1ccccc1-c1ccccc1F)Nc1nc(N2CCOCC2)nc(-n2c(C(F)F)nc3ccccc32)n1
output: A’

---

target: PI3K gamma (Homo sapiens, UniProt P48736)
Sequence (P48736 whole entry, species assumed): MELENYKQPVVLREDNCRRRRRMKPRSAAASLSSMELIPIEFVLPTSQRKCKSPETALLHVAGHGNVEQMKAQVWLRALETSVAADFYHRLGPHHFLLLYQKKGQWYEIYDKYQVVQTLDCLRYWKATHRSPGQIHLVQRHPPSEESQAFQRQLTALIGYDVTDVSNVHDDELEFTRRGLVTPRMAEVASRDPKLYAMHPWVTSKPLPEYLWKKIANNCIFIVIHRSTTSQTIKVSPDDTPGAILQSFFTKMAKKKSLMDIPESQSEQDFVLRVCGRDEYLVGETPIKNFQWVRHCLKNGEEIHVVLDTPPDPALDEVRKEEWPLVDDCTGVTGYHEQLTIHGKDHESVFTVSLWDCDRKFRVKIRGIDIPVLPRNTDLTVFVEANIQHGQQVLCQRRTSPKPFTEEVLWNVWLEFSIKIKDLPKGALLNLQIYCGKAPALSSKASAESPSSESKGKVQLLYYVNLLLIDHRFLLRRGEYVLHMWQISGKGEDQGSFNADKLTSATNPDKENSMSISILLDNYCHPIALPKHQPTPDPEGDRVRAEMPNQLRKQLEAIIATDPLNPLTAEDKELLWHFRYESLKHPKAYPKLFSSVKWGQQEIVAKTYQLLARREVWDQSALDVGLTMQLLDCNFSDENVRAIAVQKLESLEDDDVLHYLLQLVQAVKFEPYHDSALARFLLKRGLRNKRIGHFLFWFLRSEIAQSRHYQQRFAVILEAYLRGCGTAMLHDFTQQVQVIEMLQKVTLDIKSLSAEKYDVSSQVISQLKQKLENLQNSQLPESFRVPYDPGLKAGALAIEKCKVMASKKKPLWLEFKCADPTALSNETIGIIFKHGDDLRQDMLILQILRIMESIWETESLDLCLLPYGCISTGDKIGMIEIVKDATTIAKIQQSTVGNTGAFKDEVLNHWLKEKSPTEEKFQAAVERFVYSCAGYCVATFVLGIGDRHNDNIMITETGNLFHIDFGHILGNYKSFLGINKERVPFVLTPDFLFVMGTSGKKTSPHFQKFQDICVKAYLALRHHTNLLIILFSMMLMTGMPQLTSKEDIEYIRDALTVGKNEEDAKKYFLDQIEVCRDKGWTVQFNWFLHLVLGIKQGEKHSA
Reported values of IC50 for individual entries

# structureString, testedSystem, IC50
measured = [
    ("CC(C)(Cc1ccccc1-c1cncnc1)Nc1nc(N2CCOCC2)nc(-n2c(C(F)F)nc3ccccc32)n1", "PI3K gamma (Homo sapiens, UniProt P48736)", "200 to 500 nM"),
    ("COc1ccccc1CC(C)(C)Nc1nc(N2CCOCC2)nc(-n2c(C(F)F)nc3ccccc32)n1", "PI3K gamma (Homo sapiens, UniProt P48736)", "200 to 500 nM"),
    ("COc1cc(CC(C)(C)Nc2nc(N3CCOCC3)nc(-n3c(C(F)F)nc4ccccc43)n2)ccc1F", "PI3K gamma (Homo sapiens, UniProt P48736)", "> 500 nM"),
    ("COc1cccc(-c2ccccc2CC(C)(C)Nc2nc(N3CCOCC3)nc(-n3c(C(F)F)nc4ccccc43)n2)c1", "PI3K gamma (Homo sapiens, UniProt P48736)", "> 500 nM"),
    ("CC(C)(Cc1ccccc1-c1cccnc1F)Nc1nc(N2CCOCC2)nc(-n2c(C(F)F)nc3ccccc32)n1", "PI3K gamma (Homo sapiens, UniProt P48736)", "> 500 nM"),
]

input: I have this compound here, CC(C)(CNc1nc(N2CCOCC2)nc(-n2c(C(F)F)nc3ccccc32)n1)c1ccccc1 , and I need its recorded IC50.
output: > 500 nM

input: Follow-up entry: C[C@H](Nc1nc(N2CCOCC2)nc(-n2c(C(F)F)nc3ccccc32)n1)c1ccccc1
output: > 500 nM

input: Follow-up entry: COc1ccc(CC(C)(C)Nc2nc(N3CCOCC3)nc(-n3c(C(F)F)nc4ccccc43)n2)cc1
output: > 500 nM
